Each record here notes measured half-life.
Assay: Pharmacokinetic study in rats after oral administration
Format: in vivo, SD rats
Conditions: male, SD, rat, plasma, po, 50 mg/kg, silybin 50 mg/kg oral, without baicalein, read-out: t1/2z, free silybin (converted)
Enter your answer as a number in h; do not include the unit.

**Q:** Looking for the measured half-life of COc1cc([C@H]2Oc3cc([C@H]4Oc5cc(O)cc(O)c5C(=O)[C@@H]4O)ccc3O[C@@H]2CO)ccc1O [silybin A] , can you help?
**A:** 1.5

**Q:** What value of measured half-life is listed for COc1cc([C@@H]2Oc3cc([C@H]4Oc5cc(O)cc(O)c5C(=O)[C@@H]4O)ccc3O[C@H]2CO)ccc1O [silybin B] ?
**A:** 1.7
